IC50 for assorted compounds
- Tgt: purified recombinant human GAC (GLS1) (Homo sapiens)
- Sequence (O94925 55-598 isoform O94925-3 limits assumed): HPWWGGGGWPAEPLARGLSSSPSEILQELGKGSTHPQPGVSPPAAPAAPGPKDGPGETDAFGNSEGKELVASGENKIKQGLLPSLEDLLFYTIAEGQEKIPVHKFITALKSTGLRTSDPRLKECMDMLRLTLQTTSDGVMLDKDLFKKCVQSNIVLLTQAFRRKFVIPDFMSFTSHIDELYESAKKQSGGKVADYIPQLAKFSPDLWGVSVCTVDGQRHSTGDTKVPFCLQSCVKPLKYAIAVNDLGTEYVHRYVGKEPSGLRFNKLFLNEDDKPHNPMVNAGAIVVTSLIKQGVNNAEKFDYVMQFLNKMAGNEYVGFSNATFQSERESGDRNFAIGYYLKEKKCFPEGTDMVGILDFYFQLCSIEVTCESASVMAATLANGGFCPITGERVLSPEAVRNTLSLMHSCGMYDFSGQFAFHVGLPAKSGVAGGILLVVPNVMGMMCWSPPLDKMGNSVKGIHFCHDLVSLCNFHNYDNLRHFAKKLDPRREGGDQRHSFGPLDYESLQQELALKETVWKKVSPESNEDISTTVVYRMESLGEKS
- Procedure details: GLS1 Enzymatic Activity Assay (dual-coupled enzymatic assay)

{"columns": ["Sample smiles", "IC50"],
 "data": [
  ["O=C(NCc1ccccn1)c1cn(CCCCc2cc3cc[nH]c3nn2)nn1", "500 to 5000 nM"],
  ["CCOC(=O)N1CC(c2cc3cc(CCCCn4cc(C(=O)NCc5cc(OC(F)(F)F)ccc5F)nn4)nnc3[nH]2)C1", "< 100 nM"]
]}

Data request: What does the data say about its IC50? Entry: `CC(C)Cc1cc2cc(CCCCn3cc(C(=O)NCc4ccccn4)nn3)nnc2[nH]1`
Data returned: 500 to 5000 nM

Data request: And for `Cc1ccc(CNC(=O)c2cn(CCCCc3cc4c(C5=CCOCC5)c(C5CC5)[nH]c4nn3)nn2)cn1` ?
Data returned: < 100 nM

Data request: And for `COCCOC(=O)N1CC(c2cc3cc(CCCCn4cc(C(=O)NCc5cc(OC(F)(F)F)ccc5F)nn4)nnc3[nH]2)C1` ?
Data returned: < 100 nM

Data request: And for `CC(=O)Nc1cccc(-c2c(C3CC3)[nH]c3nnc(CCCCn4cc(C(=O)NCc5ccc(C)nc5)nn4)cc23)c1` ?
Data returned: < 100 nM

Data request: And for `O=C(NCc1ccccn1)c1cn(CCCCc2cc3c(Cc4ccc(Cl)cc4)c(C4CC4)[nH]c3nn2)nn1` ?
Data returned: < 100 nM

Data request: And for `CC(C)(C)OC(=O)N1CC(c2cc3cc(CCCCn4cc(C(=O)NCc5cccc(OC(F)(F)F)c5)nn4)nnc3[nH]2)C1` ?
Data returned: < 100 nM

Data request: And for `O=C(NCc1cccc(OC(F)(F)F)c1)c1cn(CCCCc2cc3c(-c4ccccn4)c(C4CC4)[nH]c3nn2)nn1` ?
Data returned: < 100 nM
